- Test system: Zika virus NS2B-NS3 protease (linked construct)
- Assay comment: Primary screen NINDS Rhodamine qHTS for Zika virus inhibitors (AID 1347160); further: nearly all actives have a fitted effect of over 55% in size
- Experimental parameters: purified NS2B-NS3 protease, Rhodamine110 substrate fluorescence; series mostly up to 57.1 µM
Records with an inconclusive call do not appear. Activity calls are given as the source filed them. The call rests on the fitted dose curve; in most records, active means well fitted inhibition curve with a large enough effect; inconclusive means small, poorly fitted or top-dose-only effect; inactive means no such curve, though single readings can be large or run the other way.
# valid calls are active, inactive; nothing else

Incoming: Please state the recorded outcome for this compound: C[C@H]1CCC[C@H](O)CCC/C=C/c2cc(O)cc(O)c2C(=O)O1
Outgoing: inactive

###

- Measured target: Cytochrome P450 2D6 (Homo sapiens)
- Assay comment: qHTS Assay for Inhibitors and Substrates of Cytochrome P450 2D6 (AID 891); further: nearly all actives have a fitted effect of over 60% in size
- Experimental parameters: recombinant CYP2D6, luciferin-ME EGE luminescence; series mostly up to 57.1 µM
Results filed as inconclusive are left out. Calls of active or inactive are those of the source. Calls follow the shape of the dose curve; as a rule, active = well fitted inhibition curve with a large enough effect; inconclusive = small, poorly fitted or top-dose-only effect; inactive = no such curve, though single readings can be large or run the other way.
Assign a class; possible classes are 1 (yes) = active, 0 (no) = inactive

The examples below pair each entry with its known result.
[
  {
    "Molecule": "C[C@@H]1O[C@H](O[C@@H]2C[C@@H](O)[C@]3(CO)[C@H]4[C@H](O)C[C@]5(C)[C@@H](C6=CC(=O)OC6)CC[C@@]5(O)[C@@H]4CC[C@]3(O)C2)[C@@H](O)[C@H](O)[C@H]1O",
    "Label value": "1 (yes)"
  },
  {
    "Molecule": "OC1(c2ccc(Cl)cc2)CCN(Cc2c[nH]c3ccccc23)CC1",
    "Label value": "1 (yes)"
  },
  {
    "Molecule": "CN(C(=O)Cc1ccccc1)[C@H](CN1CCCC1)c1ccccc1",
    "Label value": "1 (yes)"
  },
  {
    "Molecule": "COc1ccc2c3c([nH]c2c1)C(C)=NCC3",
    "Label value": "1 (yes)"
  },
  {
    "Molecule": "N[C@H](C(=O)O)c1cc(=O)[nH]o1",
    "Label value": "0 (no)"
  },
  {
    "Molecule": "C[C@H](N)Cc1c[nH]c2ccc(OCc3cccs3)cc12",
    "Label value": "1 (yes)"
  }
]

Consider the record given below.
Incoming: Just curious, what result did COc1ccc(CNC(=O)/C=C\c2ccc3[nH]cc(CCN(C)C)c3c2)cc1 get here?
Outgoing: 0 (no)

###

- Assay comment: Cytotoxicity qHTS for assessment of Hepg2 cells membrane integrity screened against the NCATS CANVASS Library (AID 1347387)
- Experimental parameters: HepG2 LDH release (CytoTox-ONE) fluorescence, 5 h; series mostly up to 46.1 µM
Records with an inconclusive call do not appear. The source made the active and inactive calls. Calls come from the whole dose curve; as a rule, active = well fitted curve in the direction sought with a large enough effect; inconclusive = small, poorly fitted or top-dose-only effect, or effect the other way, or another doubt; inactive = no such curve, though single readings can be large or run the other way.

[
  {
    "Compound": "CO[C@H](c1ccccc1)[C@H]1NC(=O)C(C)NC(=O)C(C[C@@H](C)CO)N(C)C(=O)[C@@H](C(O)c2cn(C(C)(C)C3CO3)c3ccccc23)NC(=O)C(C(C)C=C(C)C)NC(=O)C(CC(C)C)N(C)C(=O)C(C(C)C)NC1=O (stereo partly drawn)",
    "outcome": "inactive"
  },
  {
    "Compound": "COC(=O)C1=C2Nc3ccccc3[C@@]23CCN2CC(C(C)=O)C1C[C@H]23 (stereo partly drawn)",
    "outcome": "inactive"
  },
  {
    "Compound": "CCN1C[C@]2(C)CC[C@H](O)[C@]34C1C(C[C@H]23)[C@@]12CC[C@H](CC14)[C@](O)(COC(=O)c1ccc(OC)c(OC)c1)[C@H]2O (stereo partly drawn)",
    "outcome": "inactive"
  }
]

###

- System: CP286
- Assay comment: qHTS profiling for inhibitors of Plasmodium falciparum proliferation (AID 504749); further: nearly all actives have a fitted effect of over 60% in size
- Experimental parameters: P. falciparum in erythrocytes, SYBR Green DNA, 72 h; series mostly up to 28.7 µM
Results filed as inconclusive are left out. The source made the active and inactive calls. Calls come from the whole dose curve; as a rule, active = well fitted inhibition curve with a large enough effect; inconclusive = small, poorly fitted or top-dose-only effect; inactive = flat fitted curve, though single readings scatter.
One label from this list, please: 1.0 = active, 0.0 = inactive

As a guide, the following entries are already answered.
[
  {
    "Compound": "CCN(CC)CCO[C@H]1CC[C@@]2(C)C(=CC[C@@H]3[C@H]2CC[C@]2(C)C(=O)CC[C@H]32)C1",
    "Label value": 0.0
  },
  {
    "Compound": "CC(C)[C@@]1(NC(=O)[C@H]2CC3c4cccc5[nH]cc(c45)C[C@H]3N(C)C2)O[C@@]2(O)C3CCCN3C(=O)[C@@H](Cc3ccccc3)N2C1=O (some centres undefined)",
    "Label value": 1.0
  },
  {
    "Compound": "O=C(O)c1ccccc1-c1c2cc(Br)c(=O)cc-2oc2[c]([Hg])c(O)c(Br)cc12",
    "Label value": 0.0
  }
]

Continue with the compound presented below.
Incoming: Give the logged outcome of this assay for the following compound: C[N+](C)(C)CC(=O)[O-]
Outgoing: 0.0

###

- Assay comment: qHTS for Inhibitors of the Functional Ribonucleoprotein Complex (vRNP) of Lymphocytic Choriomeningitis Arenaviruses (LCMV): Viability assay - alamar blue signal for LCMV Primary Screen (AID 1347085); further: nearly all actives have a fitted effect of over 80% in size
- Experimental parameters: alamar blue viability counter-screen, LCMV vRNP screen cells; series mostly up to 57.5 µM
Results filed as inconclusive are left out. Active and inactive are the calls of the source. The call rests on the fitted dose curve; tested in HEK293 reporter line.
Select the matching outcome among yes = active, no = inactive

Illustrative cases are given below, each with its answer.
[
  {
    "Molecule": "C[C@H](c1ccc(F)cc1CCCC(=O)O)N(c1cc(F)ccc1F)S(=O)(=O)c1ccc(Cl)cc1",
    "Label value": "no"
  },
  {
    "Molecule": "CSc1c(Cl)c(Cl)c(Cl)c(Cl)c1Cl",
    "Label value": "no"
  },
  {
    "Molecule": "CCCCS(=N)(=O)CCC(N)C(=O)O (stereo not drawn)",
    "Label value": "no"
  },
  {
    "Molecule": "CC1(C)C2CC[C@]3(C)C(CC=C4[C@@H]5C[C@@](C)(CO)[C@@H](O)C[C@]56C[C@@H](OC6=O)[C@]43C)[C@@]2(C)CC[C@@H]1O (stereo partly drawn)",
    "Label value": "no"
  },
  {
    "Molecule": "CC(C)N(CCCNC(=O)Nc1ccc(C(C)(C)C)cc1)C[C@H]1O[C@@H](n2cc(Br)c3c(N)ncnc32)[C@H](O)[C@H]1O",
    "Label value": "no"
  },
  {
    "Molecule": "CCN(CC)CCNC(=O)c1c(C)[nH]c(C=C2C(=O)Nc3ccc(F)cc32)c1C",
    "Label value": "yes"
  },
  {
    "Molecule": "CC1(C)C=C2[C@H]3CC[C@@H]4[C@@]5(C)CCC(=O)C(C)(C)[C@@H]5CC[C@@]4(C)[C@]3(C)CC[C@@]2(C(=O)O)CC1",
    "Label value": "no"
  }
]

Then there is this molecule:
Incoming: Per the assay record, what outcome was assigned to Nc1nc(SCc2ccc([N+](=O)[O-])cc2)c2ncn([C@@H]3O[C@H](CO)[C@@H](O)[C@H]3O)c2n1 ?
Outgoing: no

###

- Assay comment: Validation screen for inhibitors of Lassa infection (AID 463096)
- Experimental parameters: Lassa virus infection, cell-based; series mostly up to 46.1 µM
Records with an inconclusive call do not appear. The source made the active and inactive calls. Calls come from the whole dose curve.
Log the outcome using a class from T for active, F for inactive

Worked set:
[
  {
    "Molecule": "Cc1nc(N=Nc2ccc(S(=O)(=O)O)cc2S(=O)(=O)O)c(COP(=O)(O)O)c(C=O)c1O",
    "Label value": "F"
  },
  {
    "Molecule": "O=C(O)/C=C/c1cnc[nH]1",
    "Label value": "F"
  },
  {
    "Molecule": "C[N+]1(C)CCc2cc3c(cc2C1C1OC(=O)c2c1ccc1c2OCO1)OCO3 (centres undefined)",
    "Label value": "F"
  },
  {
    "Molecule": "Oc1ccccc1O",
    "Label value": "F"
  },
  {
    "Molecule": "COc1cc(C(O)C(=O)O)ccc1O (centres undefined)",
    "Label value": "F"
  }
]

Incoming: Which outcome was assigned to O=C1NC(=O)C(c2ccccc2[N+](=O)[O-])=C1Nc1ccc(O)c(Cl)c1 in this test?
Outgoing: F

Incoming: Per the assay record, what outcome was assigned to Cc1cccc(C2CN(C)CCc3c2cc(O)c(O)c3Cl)c1 (centres undefined) ?
Outgoing: F

Incoming: Please share the test call associated with CN(C)CCCC1(c2ccc(F)cc2)OCc2cc(C#N)ccc21 (centres undefined) .
Outgoing: F

Incoming: Short answer needed: outcome of this test for CCn1c(=O)[nH]c2cc(Cl)c(Cl)cc21 ?
Outgoing: F

Incoming: Assay result, entry N[C@H]1CONC1=O — outcome?
Outgoing: F

Incoming: # fetch the recorded call for C[C@@]1(C2CCCC2)Cc2cc(OCC(=O)O)c(Cl)c(Cl)c2C1=O here
Outgoing: F

Incoming: Give the logged outcome of this assay for the following molecule: Nc1ccc(CCNc2ncnc3c2ncn3C2OC(CO)C(O)C2O)cc1 (centres undefined)
Outgoing: F

Incoming: Could you check what this test reported for NC(=O)c1ncn([C@@H]2O[C@H](CO)[C@@H](O)[C@H]2O)n1 ?
Outgoing: F

Incoming: For CCCCCCCCCCCCCCCCCCNC(=O)OCC(COP(=O)([O-])OCC[n+]1ccsc1)OC (centres undefined) , what call appears in the results of this test?
Outgoing: F

Incoming: Given CC(C)(CO)Cc1cc(C(C)(C)C)c(O)c(C(C)(C)C)c1 , state the outcome it received in this test.
Outgoing: F

Incoming: For Cc1nc(N=Nc2ccc(C(=O)O)cc2)c(COP(=O)(O)O)c(C=O)c1O , what call appears in the results of this test?
Outgoing: F

Incoming: Field: outcome | Entry: COc1ccc(-c2ccc(N)[n+](CCCC(=O)O)n2)cc1
Outgoing: F

Data credit: PubChem BioAssay (NCATS)
